Test system: Candida albicans
experiment: Potentiation of amphotericin B-induced antimicrobial effect against Candida albicans SC5314 assessed as ratio of MIC for compound plus amphotericin B to MIC for amphotericin B alone incubated for 48 hrs by XTT assay
Assay type: functional
Measured Ratio of individual entries
Reply with the value as a number alone.

Known results for compounds:
CCC(C)CC(C)CC(C)C(O[C@@H]1O[C@H](CO)[C@@H](O)[C@H](O)[C@@H]1O)C(C)/C=C(\C)C(O)C(C)/C=C(\C)C(O)C(C)C(=O)O (stereo partly drawn) ... 0.25
CC[C@H](C)C[C@H](C)C[C@H](C)[C@@H](O[C@@H]1O[C@H](CO)[C@@H](O)[C@H](O)[C@@H]1O)[C@@H](C)/C=C(\C)[C@@H](O)[C@@H](C)/C=C(\C)[C@@H](O)[C@@H](C)/C=C(\C)C(=O)OC[C@@H](O)[C@@H](O)[C@H](O)CO ... 0.25

# Ratio lookup, item CC[C@H](C)C[C@H](C)C[C@H](C)[C@@H](O[C@@H]1O[C@H](COC(C)=O)[C@@H](O)[C@H](O)[C@@H]1O)[C@@H](C)/C=C(\C)[C@@H](O)[C@@H](C)/C=C(\C)[C@@H](O)[C@@H](C)/C=C(\C)C(=O)OC[C@@H](O)[C@@H](O)[C@H](O)CO 0.25
